assay: Metabolic stability in non human primate liver microsome assessed as parent compound remaining measured at 120 mins in presence of NADPH by LC-MS/MS analysis; type: ADME; details: primates, liver microsomes, read-out: Stability
quantity: remaining at 2 h (%)

[
  {
    "compound": "C[C@H]1CC2(CCN(c3ccc(C(=O)N4CCC(CN5Cc6cc7c(cc6C5)C(=O)N(C5CCC(=O)NC5=O)C7=O)CC4)cc3)CC2)CN1c1ccc(C#N)c(Cl)c1 (stereo partly specified)",
    "reading-unit": "%",
    "measurement": 82
  }
]

###

experiment: Half life in Beagle dog at 10 mg/kg, po measured upto 24 hrs by LC-MS/MS analysis; assay type: ADME, organism-based, Canis lupus familiaris; conditions: in vivo

[
  {
    "molecule": "C[C@H]1CC2(CCN(c3ccc(C(=O)N4CCC(CN5Cc6cc7c(cc6C5)C(=O)N(C5CCC(=O)NC5=O)C7=O)CC4)cc3)CC2)CN1c1ccc(C#N)c(Cl)c1 (stereo partly specified)",
    "reading-unit": "h",
    "half-life": 27.4
  }
]

###

assay: Half life in Sprague-Dawley rat at 1 mg/kg, iv measured upto 24 hrs by LC-MS/MS analysis; assay type: ADME, organism-based; conditions: in vivo

[
  {
    "molecule": "C[C@H]1CC2(CCN(c3ccc(C(=O)N4CCC(CN5Cc6cc7c(cc6C5)C(=O)N(C5CCC(=O)NC5=O)C7=O)CC4)nn3)CC2)CN1c1ccc(C#N)c(Cl)c1 (some centres undefined)",
    "reading-unit": "h",
    "half-life": 2
  },
  {
    "molecule": "CN(c1ccc(C#N)c(Cl)c1)[C@H]1CC[C@H](NC(=O)c2ccc(N3CCN(C4CN(c5ccc6c(c5)C(=O)N(C5CCC(=O)NC5=O)C6=O)C4)CC3)cc2)CC1 (some centres undefined)",
    "reading-unit": "h",
    "half-life": 5.5
  },
  {
    "molecule": "N#Cc1ccc(O[C@H]2CC[C@H](NC(=O)c3ccc(N4CCC(CN5CCN(c6cc7c(cc6F)C(=O)N(C6CCC(=O)NC6=O)C7=O)CC5)CC4)nn3)CC2)cc1Cl (some centres undefined) [BAVDEGALUTAMIDE]",
    "reading-unit": "h",
    "half-life": 12
  },
  {
    "molecule": "C[C@H]1CC2(CCN(c3cnc(C(=O)N4CCC(CN5Cc6cc7c(cc6C5)C(=O)N(C5CCC(=O)NC5=O)C7=O)CC4)cn3)CC2)CN1c1ccc(C#N)c(Cl)c1 (some centres undefined)",
    "reading-unit": "h",
    "half-life": 1.4
  }
]

###

The entries below are paired with their reported AUC(0-t) at 24 h.
test: AUC (0 to t) in Sprague-Dawley rat at 3 mg/kg, po measured upto 24 hrs by LC-MS/MS analysis; assay type: ADME, organism-based; design: dose 3 mg/kg, time < 24 hrs, route po; details: in vivo
quantity: AUC(0-t) at 24 h (ng·h/mL)

[
  {
    "molecule": "C[C@H]1CC2(CCN(c3cnc(C(=O)N4CCC(CN5Cc6cc7c(cc6C5)C(=O)N(C5CCC(=O)NC5=O)C7=O)CC4)cn3)CC2)CN1c1ccc(C#N)c(Cl)c1 (some centres undefined)",
    "quantity": "AUC(0-t) at 24 h",
    "measurement": 235
  },
  {
    "molecule": "CN(c1ccc(C#N)c(Cl)c1)[C@H]1CC[C@H](NC(=O)c2ccc(N3CCN(C4CN(c5ccc6c(c5)C(=O)N(C5CCC(=O)NC5=O)C6=O)C4)CC3)cc2)CC1 (some centres undefined)",
    "quantity": "AUC(0-t) at 24 h",
    "measurement": 535
  },
  {
    "molecule": "N#Cc1ccc(O[C@H]2CC[C@H](NC(=O)c3ccc(N4CCC(CN5CCN(c6cc7c(cc6F)C(=O)N(C6CCC(=O)NC6=O)C7=O)CC5)CC4)nn3)CC2)cc1Cl (some centres undefined) [BAVDEGALUTAMIDE]",
    "quantity": "AUC(0-t) at 24 h",
    "measurement": 3600
  },
  {
    "molecule": "C[C@H]1CC2(CCN(c3ccc(C(=O)N4CCC(CN5Cc6cc7c(cc6C5)C(=O)N(C5CCC(=O)NC5=O)C7=O)CC4)nn3)CC2)CN1c1ccc(C#N)c(Cl)c1 (some centres undefined)",
    "quantity": "AUC(0-t) at 24 h",
    "measurement": 1100
  }
]

###

assay: in vivo; settings: Sprague-Dawley, rat, po, 5 mg/kg
Rule: bioavailability at 24 h of 40% or more gives 1; anything lower gives -1.

[
  {
    "compound": "C[C@H]1CC2(CCN(c3ccc(C(=O)N4CCC(C)(CN5Cc6cc7c(cc6C5)C(=O)N(C5CCC(=O)NC5=O)C7=O)CC4)cc3)CC2)CN1c1ccc(C#N)c(Cl)c1 (some centres not stated)",
    "class-assignment": 1
  },
  {
    "compound": "C[C@H]1CC2(CCN(c3ccc(C(=O)N4CC(N5Cc6cc7c(cc6C5)C(=O)N(C5CCC(=O)NC5=O)C7=O)C4)cc3)CC2)CN1c1ccc(C#N)c(Cl)c1 (some centres not stated)",
    "class-assignment": -1
  },
  {
    "compound": "C[C@H]1CC2(CCN(c3ccc(C(=O)N4CCC(N5Cc6cc7c(cc6C5)C(=O)N(C5CCC(=O)NC5=O)C7=O)CC4)cc3)CC2)CN1c1ccc(C#N)c(Cl)c1 (some centres not stated)",
    "class-assignment": 1
  },
  {
    "compound": "COC1(CN2Cc3cc4c(cc3C2)C(=O)N(C2CCC(=O)NC2=O)C4=O)CCN(C(=O)c2ccc(N3CCC4(CC3)C[C@H](C)N(c3ccc(C#N)c(Cl)c3)C4)cc2)CC1 (some centres not stated)",
    "class-assignment": -1
  },
  {
    "compound": "C[C@H]1CC2(CCN(c3ccc(C(=O)N4CCC(F)(CN5Cc6cc7c(cc6C5)C(=O)N(C5CCC(=O)NC5=O)C7=O)CC4)cc3)CC2)CN1c1ccc(C#N)c(Cl)c1 (some centres not stated)",
    "class-assignment": -1
  },
  {
    "compound": "C[C@H]1CC2(CCN(c3ccc(C(=O)N4CCC(CN5Cc6cc7c(cc6C5)C(=O)N(C5CCC(=O)NC5=O)C7=O)CC4)cc3)CC2)CN1c1ccc(C#N)c(Cl)c1 (some centres not stated)",
    "class-assignment": 1
  },
  {
    "compound": "C[C@H]1CC2(CCN(c3ccc(C(=O)N4CC(CN5Cc6cc7c(cc6C5)C(=O)N(C5CCC(=O)NC5=O)C7=O)C4)cc3)CC2)CN1c1ccc(C#N)c(Cl)c1 (some centres not stated)",
    "class-assignment": -1
  }
]

###

test: Metabolic stability in rat liver microsome assessed as parent compound remaining measured at 120 mins in presence of NADPH by LC-MS/MS analysis; format: ADME; details: liver microsomes, read-out: Stability
quantity: remaining at 2 h (%)

[
  {
    "compound": "C[C@H]1CC2(CCN(c3ccc(C(=O)N4CCC(CN5Cc6cc7c(cc6C5)C(=O)N(C5CCC(=O)NC5=O)C7=O)CC4)cc3)CC2)CN1c1ccc(C#N)c(Cl)c1 (stereo partly specified)",
    "measurement": 87
  }
]

###

assay: Clearance in Beagle dog at 1 mg/kg, iv measured upto 24 hrs by LC-MS/MS analysis; format: ADME, organism-based, Canis lupus familiaris; conditions: in vivo

[
  {
    "compound": "C[C@H]1CC2(CCN(c3ccc(C(=O)N4CCC(CN5Cc6cc7c(cc6C5)C(=O)N(C5CCC(=O)NC5=O)C7=O)CC4)cc3)CC2)CN1c1ccc(C#N)c(Cl)c1 (stereo partly specified)",
    "clearance": "3.17 mL/min/kg"
  }
]

###

assay: in vivo; conditions: Sprague-Dawley, rat, iv, 2 mg/kg
The entries below are paired with their reported AUC(0-t) at 24 h.

[
  {
    "compound": "C[C@H]1CC2(CCN(c3ccc(C(=O)N4CCC(C)(CN5Cc6cc7c(cc6C5)C(=O)N(C5CCC(=O)NC5=O)C7=O)CC4)cc3)CC2)CN1c1ccc(C#N)c(Cl)c1 (some centres not stated)",
    "AUC(0-t) at 24 h / ng·h/mL": 5090
  },
  {
    "compound": "C[C@H]1CC2(CCN(c3ccc(C(=O)N4CC(N5Cc6cc7c(cc6C5)C(=O)N(C5CCC(=O)NC5=O)C7=O)C4)cc3)CC2)CN1c1ccc(C#N)c(Cl)c1 (some centres not stated)",
    "AUC(0-t) at 24 h / ng·h/mL": 2370
  },
  {
    "compound": "COC1(CN2Cc3cc4c(cc3C2)C(=O)N(C2CCC(=O)NC2=O)C4=O)CCN(C(=O)c2ccc(N3CCC4(CC3)C[C@H](C)N(c3ccc(C#N)c(Cl)c3)C4)cc2)CC1 (some centres not stated)",
    "AUC(0-t) at 24 h / ng·h/mL": 2390
  },
  {
    "compound": "C[C@H]1CC2(CCN(c3ccc(C(=O)N4CCC(N5Cc6cc7c(cc6C5)C(=O)N(C5CCC(=O)NC5=O)C7=O)CC4)cc3)CC2)CN1c1ccc(C#N)c(Cl)c1 (some centres not stated)",
    "AUC(0-t) at 24 h / ng·h/mL": 2100
  },
  {
    "compound": "C[C@H]1CC2(CCN(c3ccc(C(=O)N4CC(CN5Cc6cc7c(cc6C5)C(=O)N(C5CCC(=O)NC5=O)C7=O)C4)cc3)CC2)CN1c1ccc(C#N)c(Cl)c1 (some centres not stated)",
    "AUC(0-t) at 24 h / ng·h/mL": 1380
  },
  {
    "compound": "C[C@H]1CC2(CCN(c3ccc(C(=O)N4CCC(F)(CN5Cc6cc7c(cc6C5)C(=O)N(C5CCC(=O)NC5=O)C7=O)CC4)cc3)CC2)CN1c1ccc(C#N)c(Cl)c1 (some centres not stated)",
    "AUC(0-t) at 24 h / ng·h/mL": 4000
  },
  {
    "compound": "C[C@H]1CC2(CCN(c3ccc(C(=O)N4CCC(CN5Cc6cc7c(cc6C5)C(=O)N(C5CCC(=O)NC5=O)C7=O)CC4)cc3)CC2)CN1c1ccc(C#N)c(Cl)c1 (some centres not stated)",
    "AUC(0-t) at 24 h / ng·h/mL": 5490
  }
]

Data origin: ChEMBL document CHEMBL5365467
